Origin of measurements: patent EP2649983A1

biological target: SNARE complex in cells of a human neuroblastoma cell line (human, UniProt P60880 1-206); assay: cell-based or functional assay
Sequence (P60880 whole entry, one chain of several): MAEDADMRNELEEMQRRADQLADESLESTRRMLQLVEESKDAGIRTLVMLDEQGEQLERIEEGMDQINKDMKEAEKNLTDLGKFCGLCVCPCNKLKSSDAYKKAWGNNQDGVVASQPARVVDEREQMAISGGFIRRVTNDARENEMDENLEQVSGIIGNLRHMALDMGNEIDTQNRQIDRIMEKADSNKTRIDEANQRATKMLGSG
Property measured: % RELEASED NO… (Average), dose 100 µM (%)
Unit % implied. Number only.

-- ask Which % RELEASED NO… (Average), dose 100 µM is listed for Ac-DHFLDWM-NH2 [Ac-SEQ ID NO:25-NH2] ?
-- reply 74.8

-- ask Try this binder next: Ac-EDLKRWM-NH2 [Ac-SEQ ID NO:14-NH2]
-- reply 86

-- ask Try this binder next: Ac-DHFQQRM-NH2 [Ac-SEQ ID NO:24-NH2]
-- reply 89

-- ask Try this binder next: Ac-EHLKQWM-NH2 [Ac-SEQ ID NO:1-NH2]
-- reply 79.6
